# cell viability annotations
test system: Mel-DCC-11-R; assay: cell viability relative to DMSO control (fraction of DMSO control); higher = less cytotoxic, active = 0.8 or less; conditions: 1 µM; 120 h; vemurafenib co-treatment 0 µM

{"compound": "CCC1=C[C@@H]2CN(C1)Cc1c([nH]c3ccccc13)[C@@](C(=O)OC)(c1cc3c(cc1OC)N(C)[C@H]1[C@@](O)(C(=O)OC)[C@H](OC(C)=O)[C@]4(CC)C=CCN5CC[C@]31[C@@H]54)C2.O=C(O)[C@H](O)[C@@H](O)C(=O)O.O=C(O)[C@H](O)[C@@H](O)C(=O)O [Vinorelbine Tartrate]", "target_or_system": "Mel-DCC-11-R", "cell viability": "1.04 (inactive)"}
{"compound": "CNC(=O)c1cc(Oc2ccc(NC(=O)Nc3ccc(Cl)c(C(F)(F)F)c3)cc2)ccn1", "target_or_system": "Mel-DCC-11-R", "cell viability": "0.898 (inactive)"}
{"compound": "C/C=C1/NC(=O)[C@H]2CSSCC/C=C/[C@H](CC(=O)N[C@H](C(C)C)C(=O)N2)OC(=O)[C@H](C(C)C)NC1=O", "target_or_system": "Mel-DCC-11-R", "cell viability": "0.0525 (active)"}
{"compound": "O=c1c(-c2ccc(O)cc2)coc2cc(O)cc(O)c12", "target_or_system": "Mel-DCC-11-R", "cell viability": "0.984 (inactive)"}
{"compound": "CC(/C=C/C=C(\\C)C(=O)O[C@@H]1O[C@H](CO[C@@H]2O[C@H](CO)[C@@H](O)[C@H](O)[C@H]2O)[C@@H](O)[C@H](O)[C@H]1O)=C\\C=C\\C=C(C)\\C=C\\C=C(/C)C(=O)O[C@@H]1O[C@H](CO[C@@H]2O[C@H](CO)[C@@H](O)[C@H](O)[C@H]2O)[C@@H](O)[C@H](O)[C@H]1O", "target_or_system": "Mel-DCC-11-R", "cell viability": "0.985 (inactive)"}
{"compound": "Cc1nc(Nc2ncc(C(=O)Nc3c(C)cccc3Cl)s2)cc(N2CCN(CCO)CC2)n1", "target_or_system": "Mel-DCC-11-R", "cell viability": "1.59 (inactive)"}

###

test system: Mel-DCC-11-R; experiment: cell viability relative to DMSO control (fraction of DMSO control); higher = less cytotoxic, active = 0.8 or less; conditions: 1 µM; 120 h; vemurafenib co-treatment 8 µM
Labels: 1 (active), -1 (inactive)

{"compound": "CS(=O)(=O)c1ccc(C(=O)Nc2ccc(Cl)c(-c3ccccn3)c2)c(Cl)c1 [Vismodegib]", "class_label": -1}
{"compound": "CN1[C@@H]2CCC[C@H]1C[C@@H](NC(=O)c1nn(C)c3ccccc13)C2.Cl [Granisetron hydrochloride]", "class_label": -1}
{"compound": "COc1ccc(/C=C\\c2cc(OC)c(OC)c(OC)c2)cc1OP(=O)([O-])[O-].[Na+].[Na+] [Fosbretabulin Disodium]", "class_label": 1}
{"compound": "Nc1nc(=S)c2[nH]cnc2[nH]1 [Thioguanine]", "class_label": -1}
{"compound": "CNC(=O)c1cc(Oc2ccc(NC(=O)Nc3ccc(Cl)c(C(F)(F)F)c3)cc2)ccn1 [Sorafenib]", "class_label": -1}
{"compound": "COC(=O)[C@]12CCC(C)(C)C[C@H]1[C@H]1C(=O)C=C3[C@@]4(C)C=C(C#N)C(=O)C(C)(C)[C@@H]4CC[C@@]3(C)[C@]1(C)CC2 [Bardoxolone Methyl]", "class_label": 1}
{"compound": "COc1ccc(C(Cl)=C(c2ccc(OC)cc2)c2ccc(OC)cc2)cc1 [Chlorotrianisene]", "class_label": -1}
{"compound": "CC(=O)O[C@]1(C(C)=O)CC[C@H]2[C@@H]3CCC4=CC(=O)CCC4=C3[C@@H](c3ccc(N(C)C)cc3)C[C@@]21C [Ulipristal acetate]", "class_label": -1}
{"compound": "Nc1ccc(F)cc1NC(=O)c1ccc(CNC(=O)/C=C/c2cccnc2)cc1 [Chidamide]", "class_label": -1}
{"compound": "Nc1ncn([C@@H]2O[C@H](CO)[C@@H](O)[C@H]2O)c(=O)n1 [Mylosar]", "class_label": 1}
{"compound": "C.CCN(CC)CCCC(C)Nc1ccnc2cc(Cl)ccc12.O=P(O)(O)O.O=P(O)(O)O (centres undefined) [Chloroquine diphosphate]", "class_label": -1}
{"compound": "COc1cccc2c1C(=O)c1c(O)c3c(c(O)c1C2=O)C[C@@](O)(C(=O)CO)C[C@@H]3O[C@H]1C[C@H](N)[C@H](O)[C@H](C)O1.Cl [Doxorubicin hydrochloride]", "class_label": 1}
{"compound": "CC(=O)c1c(C)c2cnc(Nc3ccc(N4CCNCC4)cn3)nc2n(C2CCCC2)c1=O.Cl [Palbociclib hydrochloride]", "class_label": -1}
{"compound": "CS(=O)(=O)CCNCc1ccc(-c2ccc3ncnc(Nc4ccc(OCc5cccc(F)c5)c(Cl)c4)c3c2)o1.Cc1ccc(S(=O)(=O)O)cc1.Cc1ccc(S(=O)(=O)O)cc1 [Lapatinib Ditosylate]", "class_label": -1}
{"compound": "CCc1cc2c(cc1N1CCC(N3CCOCC3)CC1)C(C)(C)c1[nH]c3cc(C#N)ccc3c1C2=O [Alectinib]", "class_label": -1}
{"compound": "CN1CCN(c2ccc3nc(-c4c(N)c5c(F)cccc5[nH]c4=O)[nH]c3c2)CC1 [Dovitinib]", "class_label": -1}
{"compound": "Cl.Cl.Cl.Cl.Cl.Cl.Cl.Cl.c1cc(CN2CCCNCCNCCCNCC2)ccc1CN1CCCNCCNCCCNCC1 [AMD 3100 octahydrochloride]", "class_label": -1}
{"compound": "O=c1cc(O)c(Cl)c[nH]1 [Gimeracil]", "class_label": -1}
{"compound": "Cc1nc(Nc2ncc(C(=O)Nc3c(C)cccc3Cl)s2)cc(N2CCN(CCO)CC2)n1.O [Dasatinib monohydrate]", "class_label": -1}

###

tested on: NHEM-hTERT; experiment: cell viability relative to DMSO control (fraction of DMSO control); higher = less cytotoxic, active = 0.5 or less; conditions: 1 µM; 120 h
Labels: active, inactive

{"molecule": "C=C1CC[C@@H]2[C@](C)(CO)[C@H](O)CC[C@@]2(C)[C@@H]1C/C=C1/C(=O)OC[C@H]1O [Andrographolide]", "class_label": "inactive"}
{"molecule": "Cc1nc(Nc2ncc(C(=O)Nc3c(C)cccc3Cl)s2)cc(N2CCN(CCO)CC2)n1.O [Dasatinib monohydrate]", "class_label": "inactive"}
{"molecule": "C.CCN(CC)CCCC(C)Nc1ccnc2cc(Cl)ccc12.O=P(O)(O)O.O=P(O)(O)O (centres undefined) [Chloroquine diphosphate]", "class_label": "inactive"}
{"molecule": "Nc1nc(F)nc2c1ncn2[C@@H]1O[C@H](COP(=O)(O)O)[C@@H](O)[C@@H]1O [Fludarabine Phosphate]", "class_label": "inactive"}
{"molecule": "O=c1ccn([C@@H]2O[C@H](CO)[C@@H](O)[C@H]2O)c(=O)[nH]1", "class_label": "inactive"}
{"molecule": "N.N.O=C([O-])C[O-].[Pt+2]", "class_label": "inactive"}
{"molecule": "COc1cccc2c1C(=O)c1c(O)c3c(c(O)c1C2=O)C[C@@](O)(C(=O)CO)C[C@@H]3O[C@H]1C[C@H](N)[C@H](O)[C@H](C)O1.Cl [Doxorubicin hydrochloride]", "class_label": "active"}
{"molecule": "CC1CCC(C(C)C)C(O)C1 (racemic)", "class_label": "inactive"}
{"molecule": "CC(=O)c1c(C)c2cnc(Nc3ccc(N4CCNCC4)cn3)nc2n(C2CCCC2)c1=O.Cl [Palbociclib hydrochloride]", "class_label": "inactive"}
